All values here come from PubChem BioAssay (NCI).

Please go through the items and note down their growth.
test system: TK-10 renal; assay: NCI-60 one-dose screen, 48 h (100 = growth as untreated, 0 = no growth, -100 = all killed); conditions: 10 µM unless noted
This is part of a sample that, as a whole, favours compounds with a hit. Of some 83,000 tested, about 20% had one in any assay. Active and inactive are the calls of the source. How the source made its calls: active means growth percent below 10; inactive means the rest.

Here are 6 compounds. What values of growth were reported for them?
1. Fc1ccccc1Nc1ccc2nnc(-c3ccncc3)n2n1
2. CC(C)OC1=C(Cl)C(=O)c2ccccc2C1=O
3. O=[N+]([O-])c1cc2c(cc1Br)-c1ccccc1C2
4. CCCCC(O)Cn1ncc(C(=O)OCC)c1NC(=O)NCc1ccccc1C(F)(F)F (stereo unspecified)
5. O=[N+]([O-])c1ccc(C=C2C(Cl)=C(Cl)C(Cl)=C2Cl)cc1
6. NS(=O)(=O)c1cc(Br)c2c(c1)S(=O)(=O)NCN2

Response line:
114% (inactive)
110% (inactive)
126% (inactive)
96.3% (inactive)
28.3% (inactive)
110% (inactive)
